test: DRUGMATRIX: GABAA, Muscimol, Central radioligand binding (ligand: [3H] Muscimol); format: cell membranes, Rattus norvegicus, Wistar, Brain, Membrane; conditions: Not Active = under 50% inhibition at 10 µM
measurement.label: Ki

{"compound": "NNC(=O)c1ccncc1 [ISONIAZID]", "measurement.label": "Ki", "result": "Not Active"}
{"compound": "CC[C@H]1OC(=O)[C@H](C)[C@@H](O[C@H]2C[C@@](C)(OC)[C@@H](O)[C@H](C)O2)[C@H](C)[C@@H](O[C@@H]2O[C@H](C)C[C@H](N(C)C)[C@H]2O)[C@](C)(O)C[C@@H](C)/C(=N\\OCOCCOC)[C@H](C)[C@@H](O)[C@]1(C)O [ROXITHROMYCIN]", "measurement.label": "Ki", "result": "Not Active"}
{"compound": "NS(=O)(=O)c1cc2c(cc1Cl)NCNS2(=O)=O [HYDROCHLOROTHIAZIDE]", "measurement.label": "Ki", "result": "Not Active"}

* * *

Target: Cytochrome P450 1A2 (Homo sapiens, UniProt P05177); also: in other assays of this panel Not Active means under 50% inhibition at 10 µM
Sequence (P05177 whole entry): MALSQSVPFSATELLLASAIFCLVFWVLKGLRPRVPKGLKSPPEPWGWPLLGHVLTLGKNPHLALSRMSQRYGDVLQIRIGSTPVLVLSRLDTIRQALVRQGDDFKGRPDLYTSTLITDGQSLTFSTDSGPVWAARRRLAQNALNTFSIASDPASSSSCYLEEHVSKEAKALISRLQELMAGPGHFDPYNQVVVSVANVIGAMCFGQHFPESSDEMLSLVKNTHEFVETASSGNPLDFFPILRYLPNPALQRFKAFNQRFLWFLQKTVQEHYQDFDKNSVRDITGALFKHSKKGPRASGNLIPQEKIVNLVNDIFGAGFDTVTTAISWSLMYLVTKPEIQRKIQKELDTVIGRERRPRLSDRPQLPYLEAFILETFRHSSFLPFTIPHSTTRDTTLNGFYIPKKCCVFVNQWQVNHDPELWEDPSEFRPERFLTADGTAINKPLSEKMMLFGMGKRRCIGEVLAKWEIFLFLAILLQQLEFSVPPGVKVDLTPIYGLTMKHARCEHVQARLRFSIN
pIC50: −log10 of the molar value.
Below, each of the compounds is paired with its reported pIC50 value.

{"compound": "c1ccc2c(c1)cc1ccc3cccc4ccc2c1c34", "pIC50": 7.40}
{"compound": "CSc1ccc2c(c1)N(CCC1CCCCN1C)c1ccccc1S2 (stereo not given)", "pIC50": 5.03}
{"compound": "c1ccc2[nH]c(-c3cscn3)nc2c1", "pIC50": 6.10}
{"compound": "Cc1[nH]cnc1CN1CCc2c(c3ccccc3n2C)C1=O", "pIC50": 6.22}
{"compound": "NNc1ccccc1 [PHENYLHYDRAZINE]", "pIC50": 5.10}

* * *

molecular target: Prostaglandin G/H synthase 1 (Homo sapiens, UniProt P23219); test: biochemical; type: tissue-based, Platelet; settings: read-out: IC50; also: in other assays of this panel Not Active means under 50% inhibition at 10 µM;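 also: inhibition of COX-1 enzyme activity, with arachidonic acid supplied as substrate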
Sequence (P23219 whole entry): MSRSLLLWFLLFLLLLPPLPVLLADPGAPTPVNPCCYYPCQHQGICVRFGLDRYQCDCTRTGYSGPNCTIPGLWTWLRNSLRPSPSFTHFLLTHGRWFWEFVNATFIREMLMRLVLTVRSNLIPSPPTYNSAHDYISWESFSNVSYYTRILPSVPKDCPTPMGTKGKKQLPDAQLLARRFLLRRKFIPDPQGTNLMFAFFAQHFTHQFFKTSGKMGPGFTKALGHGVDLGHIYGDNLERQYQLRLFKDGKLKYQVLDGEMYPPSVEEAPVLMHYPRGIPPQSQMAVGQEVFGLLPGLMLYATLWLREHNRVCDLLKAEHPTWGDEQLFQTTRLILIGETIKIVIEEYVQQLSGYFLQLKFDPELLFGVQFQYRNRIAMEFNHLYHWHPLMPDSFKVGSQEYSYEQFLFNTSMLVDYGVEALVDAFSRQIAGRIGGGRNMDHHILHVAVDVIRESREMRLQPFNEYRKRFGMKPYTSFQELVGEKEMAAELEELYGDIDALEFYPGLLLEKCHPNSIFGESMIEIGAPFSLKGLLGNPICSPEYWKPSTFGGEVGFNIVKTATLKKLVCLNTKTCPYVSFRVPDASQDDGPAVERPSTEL

{"smiles.text": "COc1ccc2cc(CC(=O)O)ccc2c1", "test.target": "Prostaglandin G/H synthase 1 (Homo sapiens, UniProt P23219)", "IC50 [µM]": 4.11}

* * *

Quick record of IC50 values for Cytochrome P450 2C19 (Homo sapiens, UniProt P33261).
measurement.label: IC50

{"compound": "NNc1ccccc1 [PHENYLHYDRAZINE]", "test.target": "Cytochrome P450 2C19 (Homo sapiens, UniProt P33261)", "result": "5 µM"}
{"compound": "Clc1ccccc1C(c1ccccc1)(c1ccccc1)n1ccnc1 [CLOTRIMAZOLE]", "test.target": "Cytochrome P450 2C19 (Homo sapiens, UniProt P33261)", "result": "0.016 µM"}
{"compound": "CNCCC=C1c2ccccc2CCc2ccccc21 [NORTRIPTYLINE]", "test.target": "Cytochrome P450 2C19 (Homo sapiens, UniProt P33261)", "result": "3 µM"}
{"compound": "C[C@]12Cc3c[nH]nc3C[C@@H]1CC[C@@H]1[C@@H]2CC[C@@]2(C)[C@H]1CC[C@]2(C)O [STANOZOLOL]", "test.target": "Cytochrome P450 2C19 (Homo sapiens, UniProt P33261)", "result": "0.048 µM"}
{"compound": "CC(=O)O[C@]1(C(C)=O)CC[C@H]2[C@@H]3C=C(Cl)C4=CC(=O)CC[C@]4(C)[C@H]3CC[C@@]21C [CHLORMADINONE ACETATE]", "test.target": "Cytochrome P450 2C19 (Homo sapiens, UniProt P33261)", "result": "3 µM"}
{"compound": "O=C1OC2(c3ccc(O)cc3Oc3cc(O)ccc32)c2ccccc21 [FLUORESCEIN]", "test.target": "Cytochrome P450 2C19 (Homo sapiens, UniProt P33261)", "result": "0.907 µM"}
{"compound": "CC(=O)S[C@@H]1CC2=CC(=O)CC[C@]2(C)[C@H]2CC[C@@]3(C)[C@@H](CC[C@@]34CCC(=O)O4)[C@H]12 [SPIRONOLACTONE]", "test.target": "Cytochrome P450 2C19 (Homo sapiens, UniProt P33261)", "result": "3 µM"}
{"compound": "CSc1ccc2c(c1)N(CCC1CCCCN1C)c1ccccc1S2 (stereo not drawn) [THIORIDAZINE]", "test.target": "Cytochrome P450 2C19 (Homo sapiens, UniProt P33261)", "result": "6.38 µM"}

* * *

Quick record of pIC50 values for Cytochrome P450 2D6 (Homo sapiens, UniProt P10635).
pIC50: −log10 of the molar value.
measurement.label: pIC50

{"molecule": "COc1ccc(CN(CCN(C)C)c2ccccn2)cc1 [PYRILAMINE]", "test.target": "Cytochrome P450 2D6 (Homo sapiens, UniProt P10635)", "measurement.label": "pIC50", "numeric.value": 6.52}
{"molecule": "CCc1ccc(C(=O)C(C)CN2CCCCC2)cc1 (configuration not stated) [EPERISONE]", "test.target": "Cytochrome P450 2D6 (Homo sapiens, UniProt P10635)", "measurement.label": "pIC50", "numeric.value": 5.31}
{"molecule": "CNCCC=C1c2ccccc2CCc2ccccc21 [NORTRIPTYLINE]", "test.target": "Cytochrome P450 2D6 (Homo sapiens, UniProt P10635)", "measurement.label": "pIC50", "numeric.value": 6.00}
{"molecule": "NNc1ccccc1 [PHENYLHYDRAZINE]", "test.target": "Cytochrome P450 2D6 (Homo sapiens, UniProt P10635)", "measurement.label": "pIC50", "numeric.value": 5.52}
{"molecule": "CNC(=O)Oc1ccc2c(c1)[C@]1(C)CCN(C)[C@@H]1N2C [PHYSOSTIGMINE]", "test.target": "Cytochrome P450 2D6 (Homo sapiens, UniProt P10635)", "measurement.label": "pIC50", "numeric.value": 6.70}
{"molecule": "CC(CCc1ccccc1)NCC(O)c1ccc(O)c(C(N)=O)c1 (configuration not stated) [LABETALOL]", "test.target": "Cytochrome P450 2D6 (Homo sapiens, UniProt P10635)", "measurement.label": "pIC50", "numeric.value": 6.10}
{"molecule": "C[C@]12Cc3c[nH]nc3C[C@@H]1CC[C@@H]1[C@@H]2CC[C@@]2(C)[C@H]1CC[C@]2(C)O [STANOZOLOL]", "test.target": "Cytochrome P450 2D6 (Homo sapiens, UniProt P10635)", "measurement.label": "pIC50", "numeric.value": 5.03}

* * *

assay: DRUGMATRIX: Phosphodiesterase PDE4 enzyme inhibition (substrate: [3H]cAMP + cAMP); settings: u-937; Not Active = under 50% inhibition at 10 µM

{"molecule": "CC(C)NC[C@H](O)COc1cccc2[nH]ccc12", "IC50": "Not Active"}
{"molecule": "COc1ccc(C(CN(C)C)C2(O)CCCCC2)cc1 (stereo not given)", "IC50": "Not Active"}
{"molecule": "COS(C)(=O)=O", "IC50": "Not Active"}
{"molecule": "Nc1nc2c(ncn2COC(CO)CO)c(=O)[nH]1", "IC50": "Not Active"}
{"molecule": "CCC1(c2ccccc2)C(=O)NCNC1=O", "IC50": "Not Active"}
{"molecule": "CC(C)(C)NC(=O)[C@@H]1CN(Cc2cccnc2)CCN1C[C@@H](O)C[C@@H](Cc1ccccc1)C(=O)N[C@H]1c2ccccc2C[C@H]1O.O", "IC50": "Not Active"}
{"molecule": "C=C(C)[C@@H]1[C@H]2OC(=O)[C@@H]1[C@]1(O)C[C@H]3O[C@]34C(=O)O[C@H]2[C@]14C", "IC50": "Not Active"}
{"molecule": "CN(C)[C@@H]1C(O)=C(C(N)=O)C(=O)[C@@]2(O)C(O)=C3C(=O)c4c(O)cccc4[C@@](C)(O)[C@H]3[C@H](O)[C@@H]12", "IC50": "Not Active"}
{"molecule": "CC(=O)O[C@]1(C(C)=O)CC[C@H]2[C@@H]3C=C(Cl)C4=CC(=O)CC[C@]4(C)[C@H]3CC[C@@]21C [CHLORMADINONE ACETATE]", "IC50": "Not Active"}
{"molecule": "CC(=O)[C@H]1CC[C@H]2[C@@H]3CCC4=CC(=O)CC[C@]4(C)[C@H]3CC[C@]12C", "IC50": "Not Active"}
{"molecule": "CC(=O)S[C@@H]1CC2=CC(=O)CC[C@]2(C)[C@H]2CC[C@@]3(C)[C@@H](CC[C@@]34CCC(=O)O4)[C@H]12", "IC50": "Not Active"}
{"molecule": "CCCSc1ccc2nc(NC(=O)OC)[nH]c2c1", "IC50": "Not Active"}
{"molecule": "CO[C@@H]1[C@@H](O[C@@H]2O[C@H](C)[C@@H](O[C@H]3C[C@@](C)(O)[C@@H](OC(=O)CC(C)C)[C@H](C)O3)[C@H](N(C)C)[C@H]2O)[C@@H](CC=O)C[C@@H](C)[C@@H](O)/C=C/C=C/C[C@@H](C)OC(=O)C[C@H]1O", "IC50": "Not Active"}
{"molecule": "CC1COc2c(N3CCN(C)CC3)c(F)cc3c(=O)c(C(=O)O)cn1c23 (stereo not given)", "IC50": "Not Active"}
{"molecule": "COCc1c(C(C)C)nc(C(C)C)c(/C=C/[C@@H](O)C[C@@H](O)CC(=O)O)c1-c1ccc(F)cc1", "IC50": "Not Active"}
